Recorded IC50 values for a group of molecules are listed next.
tested on: WI-38 cells; test: MTT cytotoxicity assay, normal WI-38; type: cell-based; conditions: Homo sapiens; normal WI-38, MTT assay; read-out: IC50 (mean ± SD)

- molecule: "Cc1occ(Sc2nc3ccccc3c(=O)n2-c2ccccc2)c1C(=O)C=Cc1ccc(Cl)cc1"
  unitOfMeasurement: "µM"
  operator: "="
  IC50: 68.7
- molecule: "CC(=O)c1c(Sc2nc3ccccc3c(=O)n2-c2ccccc2)coc1C"
  unitOfMeasurement: "µM"
  operator: "="
  IC50: 36.9
- molecule: "Cc1occ(Sc2nc3ccccc3c(=O)n2-c2ccccc2)c1C(=O)C=Cc1ccco1"
  unitOfMeasurement: "µM"
  operator: ">"
  IC50: 100
- molecule: "Cc1occ(Sc2nc3ccccc3c(=O)n2-c2ccccc2)c1C1=NN(C(=S)N=Cc2ccc(C=O)s2)C(c2ccc(F)cc2)C1 (stereo not shown)"
  unitOfMeasurement: "µM"
  operator: "="
  IC50: 35.2

* * *

System: MCF-7 cells
Test: MTT cytotoxicity assay, MCF-7
Format: cell-based
Conditions: Homo sapiens, MCF7; MCF-7, MTT assay; read-out: IC50 (mean ± SD)
Protocol: Following the published protocol[75]–[77], the cytotoxic effects of the newly synthesized quinazolinones 1–10 were assessed in vitro using the MTT test method on human liver HepG-2, breast MCF-7, colorectal HCT-116 cancer cell lines, and normal diploid cell line WI-38. There were further details in the supplemetary file. […]
pIC50: −log10 of the molar value.
Measured pIC50, listed per entry.

- molecule: "Cc1occ(Sc2nc3ccccc3c(=O)n2-c2ccccc2)c1C1=NN(C(=S)N=Cc2ccc(C=O)s2)C(c2ccc(F)cc2)C1 (centres unmarked)"
  pIC50: 5.19
- molecule: "Cc1occ(Sc2nc3ccccc3c(=O)n2-c2ccccc2)c1C1CC(c2ccco2)Nc2ccccc2N1 (centres unmarked)"
  pIC50: 5.41
- molecule: "Cc1occ(Sc2nc3ccccc3c(=O)n2-c2ccccc2)c1C(=O)C=Cc1ccc(F)cc1"
  pIC50: 4.15
- molecule: "Cc1occ(Sc2nc3ccccc3c(=O)n2-c2ccccc2)c1C(=O)C=Cc1ccco1"
  pIC50: 4.79
- molecule: "CCOC(=O)C1C(=O)C=C(c2c(Sc3nc4ccccc4c(=O)n3-c3ccccc3)coc2C)CC1c1ccc(F)cc1 (centres unmarked)"
  pIC50: 4.21
- molecule: "COc1ccc(C=CC(=O)c2c(Sc3nc4ccccc4c(=O)n3-c3ccccc3)coc2C)cc1"
  pIC50: 4.63
- molecule: "O=C(CCl)Sc1nc2ccccc2c(=O)n1-c1ccccc1"
  pIC50: 4.98
- molecule: "Cc1occ(Sc2nc3ccccc3c(=O)n2-c2ccccc2)c1C1=NN(C(N)=S)C(c2ccc(Cl)cc2)C1 (centres unmarked)"
  pIC50: 5.08
